Molecular target: MDMX (Homo sapiens, UniProt O15151)
Sequence (O15151 1-125): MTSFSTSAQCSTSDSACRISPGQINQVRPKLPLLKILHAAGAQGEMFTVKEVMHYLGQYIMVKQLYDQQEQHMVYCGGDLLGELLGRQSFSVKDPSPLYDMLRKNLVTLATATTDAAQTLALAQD
Test: Competitive fluorescence polarization assay for MDMX
Assay type: binding
Settings: competitive FP assay, read-out: IC50 (MDMX)
pIC50: −log10 of the molar value. Where a SMILES comes first, the peptide text is derived from it. Bridges are numbered along the chain shown (N, C = ends). [ ]: non-standard residue; d: D form. R8 = C=CCCCCCC[C@@](C)(N)C(=O)O; S5 = C=CCCC[C@](C)(N)C(=O)O; Aib = CC(C)(N)C(=O)O

{"COMPOUND": "CC[C@H](C)[C@H](NC(=O)[C@H](C)NC(=O)[C@H](C)NC(=O)[C@]1(C)CCCC=CCCCCCC[C@@](C)(NC(=O)[C@H](Cc2ccccc2)NC(=O)[C@@H](NC(=O)[C@H](CC(C)C)NC(C)=O)[C@@H](C)O)C(=O)N[C@@H](C)C(=O)N[C@@H](Cc2ccc(O)cc2)C(=O)N[C@@H](Cc2c[nH]c3ccccc23)C(=O)N[C@@H](C)C(=O)N[C@@H](C)C(=O)N[C@@H](CC(C)C)C(=O)N1)C(=O)N[C@@H](C(N)=O)C(C)C (single isomer, unassigned)", "pIC50": "6.00 to 7.00"}
{"COMPOUND": "CC(=O)N[C@@H](CC(C)C)C(=O)N[C@H](C(=O)N[C@@H](Cc1ccccc1)C(=O)N[C@]1(C)CCCCCCC=CCCC[C@@](C)(C(=O)N[C@@H](CO)C(=O)N[C@@H](C)C(=O)NC(C)(C)C(N)=O)NC(=O)[C@H](CC(C)C)NC(=O)[C@H](CCC(N)=O)NC(=O)[C@H](C)NC(=O)[C@H](Cc2c[nH]c3ccccc23)NC(=O)[C@H](Cc2ccc(O)cc2)NC(=O)[C@H](C)NC1=O)[C@@H](C)O [compound 10] (Ac-LTF[R8]AYWAQL[S5]SA[Aib]-NH2; staple 4-11)", "pIC50": "6.00 to 7.00"}

---

Target: MDMX (Homo sapiens, UniProt O15151)
Assay: Competitive fluorescence polarization assay for MDMX
Format: binding
Settings: competitive FP assay, read-out: IC50 (MDMX)
pIC50: −log10 of the molar value.
pIC50 values for the compounds below.

{"COMPOUND": "CCCC[C@H](NC(=O)[C@H](C)NC(=O)[C@H](C)NC(=O)[C@]1(C)CCCC=CCCCCCC[C@@](C)(NC(=O)[C@H](Cc2ccccc2)NC(=O)[C@@H](NC(=O)[C@H](CC(C)C)NC(C)=O)[C@@H](C)O)C(=O)N[C@@H](C)C(=O)N(C)[C@@H](Cc2ccc(O)cc2)C(=O)N[C@@H](Cc2c[nH]c3ccccc23)C(=O)N[C@@H](C)C(=O)N[C@@H](CCC(N)=O)C(=O)N[C@@H](CC(C)C)C(=O)N1)C(=O)N[C@@H](C)C(N)=O (single isomer, unassigned)", "pIC50": "< 6.00"}
{"COMPOUND": "CC(=O)N[C@@H](CC(C)C)C(=O)N[C@H](C(=O)N[C@@H](Cc1ccccc1)C(=O)N[C@]1(C)CCCCCCC=CCCC[C@@](C)(C(=O)N[C@@H](CO)C(=O)N[C@@H](C)C(=O)N[C@@H](C)C(N)=O)NC(=O)[C@H](CC(C)C)NC(=O)[C@H](C)NC(=O)[C@H](C)NC(=O)[C@H](Cc2c[nH]c3ccccc23)NC(=O)[C@H](CO)NC(=O)[C@H](C)NC1=O)[C@@H](C)O (single isomer, unassigned)", "pIC50": "6.00 to 7.00"}
{"COMPOUND": "CC(=O)N[C@@H](C)C(=O)N[C@@H](CC(C)C)C(=O)N[C@H](C(=O)N[C@@H](Cc1ccccc1)C(=O)N[C@]1(C)CCCCCCC=CCCC[C@@](C)(C(=O)N[C@@H](CO)C(=O)N[C@@H](C)C(=O)N[C@@H](C)C(N)=O)NC(=O)[C@H](CC2CCC2)NC(=O)[C@H](CCC(N)=O)NC(=O)[C@H](C)NC(=O)[C@H](Cc2c[nH]c3ccccc23)NC(=O)[C@H](Cc2ccc(O)cc2)NC(=O)[C@H](CCC(=O)O)NC1=O)[C@@H](C)O (single isomer, unassigned)", "pIC50": "7.00 to 8.00"}
